Every entry's value here was drawn from paper PMC4503722.

# reported IC50; entries follow
system: SW480; experiment: cells; format: cell-based; details: assay number 24; basal; read-out: Basal_Viability ATP SW480 summarized IC50

Recorded IC50, per entry:
INSERT INTO results (compound, target_of_assay, measured) VALUES
  ('CNC(=O)Oc1cccc2ccccc12 [NCGC00090680-06]', 'SW480', '> 20 µM'),
  ('CCCCCCCCCCCCCCCC(=O)OC/C=C(C)/C=C/C=C(C)/C=C/C1=C(C)CCCC1(C)C [NCGC00095056-04]', 'SW480', '> 20 µM');

In the following, a different compound is considered.
Query: I would be grateful if you could share the reported IC50 for CC(C)=CCC/C(C)=C/CC/C(C)=C/CC/C=C(\C)CC/C=C(\C)CCC=C(C)C [NCGC00181323-02] .
Reply: > 20 µM

----------
# reported Basal_Viability ATP Colo 320 IC50/EC50; entries follow
test system: Colo320; assay: cells; format: cell-based; conditions: assay number 27; basal

Recorded Basal_Viability ATP Colo 320 IC50/EC50, per entry:
INSERT INTO assay_data (compound, property_measured, measured) VALUES
  ('CN1CCN(C2Cc3ccccc3Sc3ccc(Cl)cc32)CC1.O=C(O)/C=C\C(=O)O (stereo not drawn)', 'Basal_Viability ATP Colo 320 IC50/EC50', '> 6.6667 µM'),
  ('CN1CCC(=C2c3ccccc3C=Cc3ccccc32)CC1', 'Basal_Viability ATP Colo 320 IC50/EC50', '> 20 µM');

In the following, a different compound is considered.
Query: Reported Basal_Viability ATP Colo 320 IC50/EC50 for Colo320, given CCCCCCCC(=O)OCC(COC(=O)CCCCCCC)OC(=O)CCCCCCC ?
Reply: > 20 µM

----------
# reported log10 of IC50; entries follow
tested on: RKO; experiment: cells; type: cell-based; conditions: Homo sapiens, RKO, read-out: Basal_Viability ATP RKO
Use the decimal logarithm of IC50 (µM).

INSERT INTO results (compound, property_measured, measured) VALUES
  ('O=C(O)c1ccc(-n2nc(-c3ccccc3O)nc2-c2ccccc2O)cc1 [deferasirox]', 'log10 of IC50', -1.00);

In the following, a different compound is considered.
Query: I would be grateful if you could share the reported log10 of IC50 for Sc1ncnc2nc[nH]c12 [Mercaptopurine] .
Reply: -0.18

----------
# reported pIC50; entries follow
test system: SNU-C1; experiment: cells; format: cell-based; settings: assay number 30; basal; read-out: Basal_Viability ATP SNU-C1 summarized IC50
pIC50: −log10 of the molar value.

INSERT INTO measurements (compound, measured) VALUES
  ('CCOP(=S)(OCC)SCSc1ccc(Cl)cc1', '< 4.70'),
  ('NC(=O)N/N=C/c1ccc([N+](=O)[O-])o1', '< 4.70');

Query: Reported pIC50 for SNU-C1, given O=C(O)CCc1nc2ccccc2[nH]1 ?
Reply: < 4.70

----------
tested on: endothelial tube formation in co-cultures of ECFCs and ADSCs treated with VEGF; experiment: cells; assay type: cell-based, human
# reported VEGF_ADSC\ECFC Angio CD31 TubeArea IC50/EC50; entries follow

Recorded VEGF_ADSC\ECFC Angio CD31 TubeArea IC50/EC50, per entry:
INSERT INTO measurements (compound, target_of_assay, measured) VALUES
  ('CCCCCCCC/C=C\CCCCCCCCN', 'endothelial tube formation in co-cultures of ECFCs and ADSCs treated with VEGF', '> 10 µM'),
  ('O=C(c1ccc(F)cc1)C1CCN(CCn2c(=O)[nH]c3ccccc3c2=O)CC1', 'endothelial tube formation in co-cultures of ECFCs and ADSCs treated with VEGF', '> 10 µM');

In the following, a different compound is considered.
Query: Reported VEGF_ADSC\ECFC Angio CD31 TubeArea IC50/EC50 for endothelial tube formation in co-cultures of ECFCs and ADSCs treated with VEGF, given [O-][S+](c1cc(Cl)cc(Cl)c1O)c1cc(Cl)cc(Cl)c1O ?
Reply: > 10 µM

----------
system: endothelial tube formation in co-cultures of ECFCs and ADSCs treated with VEGF; test: cells; assay type: cell-based, human; details: Homo sapiens, read-out: Anti-Angio IC50
pIC50: −log10 of the molar value.
PROPERTY_MEASURED: pIC50

Recorded pIC50, per entry:
INSERT INTO measurements (compound, measured) VALUES
  ('CC(CC1c2ccccc2CCc2ccccc21)CN(C)C (stereo not drawn) [butriptyline, reference compound]', '< 5.00'),
  ('CCCNCC(O)COc1ccccc1C(=O)CCc1ccccc1 (stereo not drawn) [propafenone, reference compound]', '< 5.00');

Query: I would be grateful if you could share the reported pIC50 for CN(C)CCC=C1c2ccccc2CCc2ccccc21 [amitriptyline, reference compound] .
Reply: < 5.00

----------
# reported IC50; entries follow
tested on: HCT116; test: cells; type: cell-based; details: assay number 25; basal; read-out: Basal_Viability ATP HCT116 summarized IC50
Supply the numeric figure in µM, leaving out any unit text.

Recorded IC50, per entry:
INSERT INTO results (compound, measured) VALUES
  ('CC[n+]1c(-c2ccccc2)c2cc(N)ccc2c2ccc(N)cc21', 4.44),
  ('Cc1ccc2c(Br)cc(Br)c(O)c2n1', 1.16),
  ('CCCCCCCCCCCCCCCC[n+]1ccccc1', 1.19);

Query: I would be grateful if you could share the reported IC50 for CC(=O)[O][Hg][c]1ccccc1 .
Reply: 2.8

----------
system: HT-29; test: cells; type: cell-based; conditions: assay number 28; basal; read-out: Basal_Viability ATP HT-29 summarized IC50
pIC50: −log10 of the molar value.
# reported pIC50; entries follow

Recorded pIC50, per entry:
INSERT INTO measurements (compound, target_of_assay, measured) VALUES
  ('CNC(=O)Oc1cccc2ccccc12', 'HT-29', '< 4.70'),
  ('CC(=O)NC(=O)c1ccccc1O', 'HT-29', '< 4.70'),
  ('COc1ccc(C(=O)c2ccccc2O)c(O)c1', 'HT-29', '< 4.70');

Query: Reported pIC50 for HT-29, given Cc1c(C)c2c(c(C)c1O)CC[C@@](C)(CCC[C@H](C)CCC[C@H](C)CCCC(C)C)O2 ?
Reply: < 4.70

Query: Reported pIC50 for HT-29, given Cc1ccc2c(Br)cc(Br)c(O)c2n1 ?
Reply: < 5.18

----------
tested on: HCT116 cells treated with a GSK3β inhibitor; assay: cells; format: cell-based; conditions: Homo sapiens, HCT-116; GSK3b inhibitor pretreated; read-out: GSK3b inh pretreated_Viability ATP HCT116
*1 amine or outer side, *2 acyl side, *3 side chain or, on linkers, in order; H or OH if unused. Where a SMILES comes first, the peptide text is derived from it. Bridges are numbered along the chain shown (N, C = ends). Roman numbers before positions name the chains, in order. [ ]: non-standard residue; d: D form. Actinocin(9to1) = Cc1c2oc3c(C)ccc(C(=O)[*:1])c3nc-2c(C(=O)[*:2])c(N)c1=O; NMeV = CN[C@H](C(=O)O)C(C)C; Sar = CNCC(=O)O
PROPERTY_MEASURED: IC50

Recorded IC50, per entry:
INSERT INTO measurements (molecule, measured) VALUES
  ('Cc1c(C)n(CCN(C)C)c2ccc(C(=O)OCCN(C)C)cc12 [Amindocate]', '> 20 µM'),
  ('Cc1c2oc3c(C)ccc(C(=O)N[C@@H]4C(=O)N[C@H](C(C)C)C(=O)N5CCC[C@H]5C(=O)N(C)CC(=O)N(C)[C@@H](C(C)C)C(=O)O[C@@H]4C)c3nc-2c(C(=O)N[C@@H]2C(=O)N[C@H](C(C)C)C(=O)N3CCC[C@H]3C(=O)N(C)CC(=O)N(C)[C@@H](C(C)C)C(=O)O[C@@H]2C)c(N)c1=O [Dactinomycin] (I: T[dV]P[Sar][NMeV] / II: T[dV]P[Sar][NMeV]; ester I:1-I:C, II:1-II:C; linker I:N-II:N via Actinocin(9to1))', '> 20 µM');

In the following, a different molecule is considered.
Query: I would be grateful if you could share the reported IC50 for Cc1ccc(CCn2c3c(c4cc(Cl)ccc42)CN(C)CC3)cn1 .
Reply: > 20 µM

----------
# reported GSK3b inh pretreated_Viability ATP HCT116 IC50/EC50; entries follow
tested on: HCT116 cells treated with a GSK3β inhibitor; assay: cells; type: cell-based; conditions: assay number 26; GSK3b inhibitor pretreated

INSERT INTO measurements (compound, measured) VALUES
  ('CCOC(=O)[C@H](CCc1ccccc1)N[C@@H](C)C(=O)N1C(=O)N(C)C[C@H]1C(=O)O.Cl', '> 20 µM'),
  ('CCCn1cnc2c1c(=O)n(CCCCC(C)=O)c(=O)n2C', '> 20 µM');

In the following, a different molecule is considered.
Query: I would be grateful if you could share the reported GSK3b inh pretreated_Viability ATP HCT116 IC50/EC50 for CCOC(=O)c1ccccc1C(=O)OCC .
Reply: > 20 µM
